Target: Sodium/hydrogen exchanger (Oryctolagus cuniculus, UniProt P23791+P50482+P26432)
Assay: Sodium/hydrogen exchanger antiport activity was measured using [22]Na+ uptake inhibition assay in acidified rabbit erythrocytes
Format: cell-based
value.kind: IC50 (nM)

Use these answered entries as a reference point.
{"compound": "CC1=C(N)c2cc(C)c(C(=O)N=C(N)N)cc2S1(=O)=O", "reported.measurement": 56}
{"compound": "COC1CS(=O)(=O)c2cc(C(=O)N=C(N)N)ccc21 (stereo unspecified)", "reported.measurement": 700}
{"compound": "Cc1cc2c(cc1C(=O)N=C(N)N)S(=O)(=O)C(C)(C)C2C (stereo unspecified)", "reported.measurement": 14}
{"compound": "Cc1cc2c(cc1C(=O)N=C(N)N)S(=O)(=O)C(C)(C)C2=O", "reported.measurement": 93}
{"compound": "Cc1cc2c(cc1C(=O)N=C(N)N)S(=O)(=O)CC2(O)Cc1ccccc1 (stereo unspecified)", "reported.measurement": 43}
{"compound": "C=C1CCS(=O)(=O)c2cc(C(=O)N=C(N)N)c(C)cc21", "reported.measurement": 29}
{"compound": "N=C(N)NC(=O)c1ccc2c(c1)S(=O)(=O)CC2O (stereo unspecified)", "reported.measurement": 1500}
{"compound": "C=C1c2cc(C)c(C(=O)N=C(N)N)cc2S(=O)(=O)C1(C)C", "reported.measurement": 13}
{"compound": "Cc1cc2c(cc1C(=O)N=C(N)N)S(=O)(=O)CCCC2", "reported.measurement": 19}
{"compound": "Cc1cc2c(cc1C(=O)N=C(N)N)S(=O)(=O)CC2N (stereo unspecified)", "reported.measurement": 116}

P: Cc1cc2c(cc1C(=O)N=C(N)N)S(=O)(=O)CCC2
Q: N=C(N)NC(=O)c1ccc2c(c1)S(=O)(=O)CC2
R: CCC1(O)CS(=O)(=O)c2cc(C(=O)N=C(N)N)c(C)cc21 (stereo unspecified)
S: CC1(C)CC(C)(C)S(=O)(=O)c2cc(C(=O)N=C(N)N)ccc21
## Task Could you please sort these 4 entries by IC50 from high to low? The response must list the labels following the requested ordering.
## Result Q, S, P, R

1: Cc1cc2c(cc1C(=O)N=C(N)N)S(=O)(=O)C(C)(C)CO2
2: CC1(C)CCS(=O)(=O)c2cc(C(=O)N=C(N)N)ccc21
## Task Recorded IC50 values differ for 1 and 2 ; which one is higher? Lab note: record the label of whichever item you select.
## Result 2
(2: 2200 nM, 1: 36 nM)

1: Cc1cc2c(cc1C(=O)N=C(N)N)S(=O)(=O)CCCO2
2: CC(C)=C1CS(=O)(=O)c2cc(C(=O)N=C(N)N)c(C)cc21
3: Cc1cc2c(cc1C(=O)N=C(N)N)S(=O)(=O)C(C)(C)C2(C)O (stereo unspecified)
4: COC1CS(=O)(=O)c2cc(C(=O)N=C(N)N)c(C)cc21 (stereo unspecified)
## Task Order the entries by their reported IC50, beginning at the minimum. Labels, ranked as asked.
## Result 3, 1, 2, 4
(3: 17 nM, 1: 28 nM, 2: 54 nM, 4: 96 nM)

1: Cc1cc2c(cc1C(=O)N=C(N)N)S(=O)(=O)C(C)(C)CC2C (stereo unspecified)
2: Cc1cc2c(cc1C(=O)N=C(N)N)S(=O)(=O)CC21OCCO1
3: Cc1cc2c(cc1C(=O)N=C(N)N)S(=O)(=O)C/C2=N\O
## Task Give the ascending ranking of the items by reported IC50. Give the labels in the order requested.
## Result 3, 1, 2
(3: 16 nM, 1: 38 nM, 2: 60 nM)

a: COC1(C)CS(=O)(=O)c2cc(C(=O)N=C(N)N)c(C)cc21 (stereo unspecified)
b: Cc1cc2c(cc1C(=O)N=C(N)N)S(=O)(=O)C(C)(C)C2O (stereo unspecified)
## Task Kindly compare a with b and tell me which has the lower IC50 figure. In your reply, give the label of the chosen option.
## Result b
(b: 28 nM, a: 40 nM)

1: Cc1cc2c(cc1C(=O)N=C(N)N)S(=O)(=O)CC2
2: Cc1cc2c(cc1C(=O)N=C(N)N)S(=O)(=O)CCC21OCCO1
3: Cc1cc2c(cc1C(=O)N=C(N)N)S(=O)(=O)CC2C(C)C (stereo unspecified)
4: Cc1cc2c(cc1C(=O)N=C(N)N)S(=O)(=O)CC2(C)O (stereo unspecified)
## Task Task field, ranking: reported IC50, descending order. Arrange the labels as the request states and list them.
## Result 2, 1, 4, 3
(2: 130 nM, 1: 60 nM, 4: 30 nM, 3: 21 nM)

A: Cc1cc2c(cc1C(=O)N=C(N)N)S(=O)(=O)CCC2C (stereo unspecified)
B: Cc1cc2c(cc1C(=O)N=C(N)N)S(=O)(=O)CC2O (stereo unspecified)
## Task Choose between A and B : whose measured IC50 value is numerically larger? Output the label that corresponds to your choice.
## Result B

P: Cc1cc2c(cc1C(=O)N=C(N)N)S(=O)(=O)CC2C (stereo unspecified)
Q: Cc1cc2c(cc1C(=O)N=C(N)N)S(=O)(=O)CCC2=O
R: CCC1CS(=O)(=O)c2cc(C(=O)N=C(N)N)c(C)cc21 (stereo unspecified)
## Task Please rank these compounds by IC50 in descending order. Enter labels, ranked according to the request.
## Result Q, P, R

A: CO/N=C1\CS(=O)(=O)c2cc(C(=O)N=C(N)N)c(C)cc21
B: COC1c2cc(C)c(C(=O)N=C(N)N)cc2S(=O)(=O)C1(C)C (stereo unspecified)
## Task Kindly identify which of A and B has the larger recorded IC50 value. Answer with the label corresponding to your selection.
## Result A
(A: 45 nM, B: 27 nM)

Source of measurements: ChEMBL document CHEMBL1131104
